Would you mind telling me the reported pE50 of each entry?
Biological target: C. elegans Slo-1a (Caenorhabditis elegans, UniProt Q95V25)
Sequence (Q95V25 whole entry): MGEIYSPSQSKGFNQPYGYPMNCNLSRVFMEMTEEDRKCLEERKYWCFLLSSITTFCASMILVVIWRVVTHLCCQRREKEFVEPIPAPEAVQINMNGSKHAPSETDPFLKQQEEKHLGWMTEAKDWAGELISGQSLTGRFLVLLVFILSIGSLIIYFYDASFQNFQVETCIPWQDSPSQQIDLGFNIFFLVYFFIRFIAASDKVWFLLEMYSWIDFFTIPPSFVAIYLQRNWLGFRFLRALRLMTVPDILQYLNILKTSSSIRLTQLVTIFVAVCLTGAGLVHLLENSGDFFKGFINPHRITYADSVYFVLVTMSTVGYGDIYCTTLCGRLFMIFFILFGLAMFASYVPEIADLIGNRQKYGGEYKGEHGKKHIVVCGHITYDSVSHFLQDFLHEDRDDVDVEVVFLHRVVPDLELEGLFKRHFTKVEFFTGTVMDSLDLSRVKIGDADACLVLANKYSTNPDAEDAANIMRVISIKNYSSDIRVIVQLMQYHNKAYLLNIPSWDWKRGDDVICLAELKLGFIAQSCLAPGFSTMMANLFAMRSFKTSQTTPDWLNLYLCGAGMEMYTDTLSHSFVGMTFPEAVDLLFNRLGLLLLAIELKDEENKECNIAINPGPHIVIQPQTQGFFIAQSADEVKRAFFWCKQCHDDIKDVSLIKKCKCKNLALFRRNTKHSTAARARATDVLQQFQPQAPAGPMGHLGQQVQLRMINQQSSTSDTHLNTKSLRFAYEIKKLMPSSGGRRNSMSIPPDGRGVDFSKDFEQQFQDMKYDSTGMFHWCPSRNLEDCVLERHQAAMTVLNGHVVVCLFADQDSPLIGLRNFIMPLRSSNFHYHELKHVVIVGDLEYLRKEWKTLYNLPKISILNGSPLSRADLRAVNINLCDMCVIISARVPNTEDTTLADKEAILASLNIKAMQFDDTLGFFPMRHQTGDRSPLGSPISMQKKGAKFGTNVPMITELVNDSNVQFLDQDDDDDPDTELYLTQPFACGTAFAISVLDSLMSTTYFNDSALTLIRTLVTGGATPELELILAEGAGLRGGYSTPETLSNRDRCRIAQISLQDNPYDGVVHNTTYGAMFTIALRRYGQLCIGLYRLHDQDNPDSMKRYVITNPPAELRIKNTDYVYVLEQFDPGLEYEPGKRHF
Experiment: In vitro assay 1: C. elegans Slo-1a, action at a recombinant C. elegans CHO cell line (membrane potential measurement)
Details: CHO cells expressing C. elegans Slo-1a; voltage sensitive dye, FLIPR Tetra; negative decadic logarithm of EC50
One number for each entry.

Count: 3. Required value per item: pE50.
1. O=C(N[C@H]1CCOc2ccccc21)c1cnc2c(-c3c(F)cccc3F)c(C(F)F)nn2c1C1CC1
2. Cc1nn2c(CN(C)C)c(C(=O)N[C@H]3CCOc4ccccc43)cnc2c1-c1cccc(Cl)c1Cl
3. CC(C)c1c(C(=O)N[C@H]2CCOc3ccccc32)cnc2c(-c3cc(Cl)ccc3Cl)c(C(F)F)nn12

[out]
1. 8.7
2. 8.0
3. 8.5

Count: 4. Required value per item: pE50.
1. Cc1nn2c(N(C)C)c(C(=O)N[C@H]3CCOc4ccccc43)cnc2c1-c1cccc(F)c1F
2. Cc1nn2c(N3CCOCC3)c(C(=O)N[C@H]3CCOc4ccccc43)cnc2c1-c1cccc(C(F)(F)F)c1F
3. Cc1nn2c(C(C)C)c(C(=O)N[C@H]3CCCc4ccccc43)cnc2c1-c1ccc(Cl)cc1
4. CC(C)c1c(C(=O)N[C@H]2CCOc3ccccc32)cnc2c(-c3ccc(F)c(F)c3)c(Cl)nn12

[out]
8.4
9.0
6.7
7.7

Data credit: patent US11001590B2
